I'd be grateful if you could share measured Kd for these entries.
Target: T1, human P2X4R peptide (extracellular 13-amino-acid peptide fragment of human P2X4R) (Homo sapiens, UniProt Q99571, biotinylated (position not given) where immobilised as ligand)
T1 construct: P2X purinoceptor 4, human; extracellular 13-amino-acid peptide fragment, the counterpart of rat residues 301-313 (11/13 residues identical to the rat peptide); also called human P2X4 peptide; source: synthetic peptide (GenScript)
T1 chain: RDLAGNEQRTLIK
Assay: ELISA; indirect ELISA, purified hscFvs on human P2X4 peptide, triplicate wells (Figure 3B)
Settings: both partners purified
One number for each entry, in nM.

[[record]]
binder = "humanized P2X4R scFv HC3-LC1 (scFv, V domains shown, humanized VH hscFv95.HC3, as the VH of m4; 15-amino-acid linker, printed as (G4S)3; humanized VL hscFv95.LC1, as the VL of m1; Cloned NcoI/NotI into a pET32a-His vector; also called hscFv95.HC3 + hscFv95.LC1; source: E. coli Rosetta-gami (DE3), purified (HisTrap, SEC)) VH: EVQLVESGGGLVQPGGSLRLSCATSGFTFTDYYMHWVRQAPGKGLEWVGFIRNKANGYTTEYSASVKGRFTISRDNSKNTLYLQMNSLRAEDTAVYYCARWEGDLLYAMDYWGQGTLVTVSS VL: DIQMTQTTSSLSASLGDRVTISCSASQGISNYLNWYQQKPDGTVKLLIYYTSSLHSGVPSRFSGSGSGTDYSLTISNLEQEDIATYYCQQYSKLPWTFGGGTKLEIK"
unit_spec = "nM"
endpoint_result = 4.7

[[record]]
binder = "humanized P2X4R scFv HC2-LC1 (scFv, V domains shown, humanized VH hscFv95.HC2 (CDRs of murine mscFv95 grafted on a human framework); 15-amino-acid linker, printed as (G4S)3; humanized VL hscFv95.LC1, as the VL of m1; Cloned NcoI/NotI into a pET32a-His vector; also called hscFv95.HC2 + hscFv95.LC1; source: E. coli Rosetta-gami (DE3), purified (HisTrap, SEC)) VH: QVQLQESGPGLVKPSQTLSLTCTTSGFTFTDYYMSWVRQAPGKGLEWIGFIRNKANGYTTEYSASVKGRFTISRDNSKNQFSLRLSSVTAADTAVYYCARWEGDLLYAMDYWGQGTTVTVSS VL: DIQMTQTTSSLSASLGDRVTISCSASQGISNYLNWYQQKPDGTVKLLIYYTSSLHSGVPSRFSGSGSGTDYSLTISNLEQEDIATYYCQQYSKLPWTFGGGTKLEIK"
unit_spec = "nM"
endpoint_result = 12

[[record]]
binder = "humanized P2X4R scFv HC3-LC3 (lead) (scFv, V domains shown, humanized VH hscFv95.HC3 (CDRs of murine mscFv95 grafted on a human framework); 15-amino-acid linker, printed as (G4S)3; humanized VL hscFv95.LC3, as the VL of m3; Cloned NcoI/NotI into a pET32a-His vector; Captured on HIS1K penta-His sensors in the Octet assay; also called hscFv HC3-LC3; P2X4R hscFv; source: E. coli Rosetta-gami (DE3), purified (HisTrap, SEC)) VH: EVQLVESGGGLVQPGGSLRLSCATSGFTFTDYYMHWVRQAPGKGLEWVGFIRNKANGYTTEYSASVKGRFTISRDNSKNTLYLQMNSLRAEDTAVYYCARWEGDLLYAMDYWGQGTLVTVSS VL: DIQMTQSPSSLSASVGDRVTITCRASQGISNYLNWYQQKPGKAPKLLIYYTSSLHSGVPSRFSGSGSGTDFTLTISSLQPEDFAYYYCQQYSKLPWTFGGGTKVEIK"
unit_spec = "nM"
endpoint_result = 2.3


# batch: return Kd for each of the 2 binders below
1. humanized P2X4R scFv HC1-LC1 (scFv, V domains shown, humanized VH hscFv95.HC1 (CDRs of murine mscFv95 grafted on a human framework); 15-amino-acid linker, printed as (G4S)3; humanized VL hscFv95.LC1 (CDRs of murine mscFv95 grafted on a human framework); Cloned NcoI/NotI into a pET32a-His vector; also called hscFv95.HC1 + hscFv95.LC1; source: E. coli Rosetta-gami (DE3), purified (HisTrap, SEC)) VH: EVKLVESGGGLVQPGGSLRLSCATSGFTFTDYYMSWVRQPPGKALEWLGFIRNKANGYTTEYSASVKGRFTISRDNSQSILYLQMNTLRAEDSATYYCARWEGDLLYAMDYWGQGTSVTVSS VL: DIQMTQTTSSLSASLGDRVTISCSASQGISNYLNWYQQKPDGTVKLLIYYTSSLHSGVPSRFSGSGSGTDYSLTISNLEQEDIATYYCQQYSKLPWTFGGGTKLEIK
2. humanized P2X4R scFv HC2-LC3 (scFv, V domains shown, humanized VH hscFv95.HC2, as the VH of m2; 15-amino-acid linker, printed as (G4S)3; humanized VL hscFv95.LC3 (CDRs of murine mscFv95 grafted on a human framework); Cloned NcoI/NotI into a pET32a-His vector; also called hscFv95.HC2 + hscFv95.LC3; source: E. coli Rosetta-gami (DE3), purified (HisTrap, SEC)) VH: QVQLQESGPGLVKPSQTLSLTCTTSGFTFTDYYMSWVRQAPGKGLEWIGFIRNKANGYTTEYSASVKGRFTISRDNSKNQFSLRLSSVTAADTAVYYCARWEGDLLYAMDYWGQGTTVTVSS VL: DIQMTQSPSSLSASVGDRVTITCRASQGISNYLNWYQQKPGKAPKLLIYYTSSLHSGVPSRFSGSGSGTDFTLTISSLQPEDFAYYYCQQYSKLPWTFGGGTKVEIK

Output:
1: 24; 2: 29

These data points were gathered from paper PMC12248463.
